- protocolDetails: probe aInhba binding on compound microarray – biochemical, small-molecule microarray, 635/667 nm fluorescence, primary screen (AID 1148);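 note: score merges 667nm spot fluorescence with signal-to-noise for antibody binding to printed compounds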
- runConditions: higher = more signal
Please note: Yes applies when composite z-score is 0.05 or greater, and No applies otherwise.

compound	cat
COCCOC(=O)N1C(=O)[C@@]2(c3cc(C#CCCO)ccc31)[C@H](C(=O)NC[C@H](O)c1ccccc1)[C@H]1C(=O)O[C@H](c3ccccc3)[C@H](c3ccccc3)N1[C@@H]2c1ccccc1OCCO	Yes
COc1ccc([Si](C)(C)[C@H]2[C@H](CCn3cc(CCO)nn3)O[C@@]3(C(=O)N(Cc4cccc(N5C(=O)c6cccc7cccc5c67)c4)c4ccccc43)[C@@H]2C)cc1	No
C=CCOC(=O)[C@@H]1[C@H]2C(=O)O[C@H](c3ccccc3)[C@H](c3ccccc3)N2[C@H](c2ccc(OCCOC(=O)[C@@H]3C[C@@H]4C(=O)N[C@@H](CCCCNC(C)=O)C(=O)N4[C@@H]3c3ccc(O)cc3)cc2)[C@@]12C(=O)Nc1ccc(I)cc12	Yes
CC(C)CCC[C@@H](C)[C@H]1CC[C@@]2(C)C3=C(CC[C@]12C)[C@@]1(C)CC[C@H](OC(=O)C(C)(C)C)C(C)(C)C1CC3 (stereo partly drawn)	No
C[N+](C)(C)CCCCCCNC(=O)[C@@H]1C[C@@H]2C(=O)NCC(=O)N2[C@@H]1c1cccc(OCCO)c1	No
COC(=O)c1ccc(OC)c(/C=C\CC(CCc2ccccc2)OC(=O)c2ccncc2)c1 (stereo not drawn)	No
[N-]=[N+]=Nc1ccccc1[C@H]1OC(c2ccc(OCCCO)cc2)=N[C@@]1(Cc1ccccc1)C(=O)NCc1ccccc1	No
CCC[C@@H]1C[C@@]1(CCC)[C@@H](NC(=O)c1ccco1)c1ccc(Cl)cc1	No
NC(=O)NCC#Cc1ccc2c(c1)[C@]1(C(=O)N2)[C@H](c2ccc(O)cc2)N2[C@H](c3ccccc3)[C@H](c3ccccc3)OC(=O)[C@H]2[C@@H]1C(=O)NC[C@H](O)c1ccccc1	No
CN(C)CCCCCCNC(=O)[C@@H]1C[C@@H]2C(=O)NCC(=O)N2[C@@H]1c1ccc(O)cc1	No
COCCOC(=O)N1C(=O)[C@@]2(c3cc(C#CCCO)ccc31)[C@H](C(=O)N1CCc3cc(OC)c(OC)cc3C1)[C@H]1C(=O)O[C@H](c3ccccc3)[C@H](c3ccccc3)N1[C@@H]2c1ccc(OCCO)cc1	Yes
C=CC[C@]1(C(=O)NCC(O)CO)N=C(c2ccc(OCCCO)cc2)O[C@H]1c1ccccc1N=[N+]=[N-] (stereo partly drawn)	Yes
CC1(C)[C@@H]2CC(C(O)C3C=CC4C(=O)N(c5ccccc5)C(=O)C4N3Nc3ccccc3F)=C[C@@H]1C2 (stereo partly drawn)	No
COC(=O)[C@]1(Cc2ccccc2CN=[N+]=[N-])N=C(c2ccc(OCCCO)cc2)O[C@@H]1c1ccccc1	No
CCOC(=O)C1=CCC(c2cccc(Cl)c2)O1 (stereo not drawn)	Yes
C=C(CCCC)/C(=C/C[C@H](OC(=O)c1ccncc1)c1ccc(CO)o1)c1cc(C(=O)OC)ccc1OC	Yes
COC(=O)c1c(CC[C@@H](CO)NC(=O)N[C@@H](C)Cn2cc(C3(O)CCCC3)nn2)oc(C(C)=O)c1C(=O)OC	Yes
Cc1ccccc1C(O)C1C=CC2C(=O)N(Cc3ccccc3)C(=O)C2N1n1cnnc1 (stereo not drawn)	No
COC(=O)[C@]1(Cc2ccccc2N=[N+]=[N-])N=C(c2ccc(OCCCO)cc2)O[C@@H]1c1ccccc1	Yes
CN(C)C(=O)[C@@]1(CCS(=O)(=O)c2ccccc2)N=C(c2ccc(OCCCO)cc2)O[C@H]1c1ccccc1CN=[N+]=[N-]	Yes
CN(C)CCCN1C(=O)[C@@]2(Cc3ccccc31)c1ccccc1C(=O)N(Cc1ccccc1)[C@H]2c1ccc(CO)cc1	No
C=CCN1C(=O)[C@@]2(O[C@@H](CCO)[C@H]([Si](C)(C)c3ccc(OC)cc3)[C@H]2C)c2cc(NC(=O)[C@H](C)O)ccc21	No
Cc1ccccc1C(O)C1C=CC2C(=O)N(C)C(=O)C2N1Nc1ccc([N+](=O)[O-])cc1[N+](=O)[O-] (stereo not drawn)	Yes
COC(=O)[C@@]1(Cc2ccccc2)[C@H]2c3cc(C(=O)N4CCCC4)n(Cc4ccc(OC(F)(F)F)cc4)c3C[C@H]2CN1C(=O)c1ccccc1	Yes
CCCC[C@@H](O)C1=C(COc2ccccc2)Cn2c(=O)n(-c3ccccc3)c(=O)n2[C@H]1CO	No
CO[C@H]1O[C@H](CO)[C@@H](OC(=O)Nc2ccc(C(F)(F)F)cc2)[C@H](OC(=O)Nc2ccccc2)[C@H]1OC(=O)Nc1ccccc1	Yes
CCOC(=O)C[C@H]1[C@H](OC(=O)Cc2ccc3c(c2)OCO3)[C@@H](NC(=O)c2ccccc2)c2cc(OCCCO)ccc2N1C(=O)c1ccccc1	No
COc1ccccc1CN1C(=O)c2ccccc2[C@@]2(Cc3ccccc3N(C3CC3)C2=O)[C@@H]1c1ccc(CO)cc1	No

Recorded values, source PubChem BioAssay.
